biological target: cynomolgus monkey IL-2Rγ/CD132 subunit (cynomolgus monkey); assay: ELISA, monovalent VHH-hFc
Sequence (chain, as listed by the source): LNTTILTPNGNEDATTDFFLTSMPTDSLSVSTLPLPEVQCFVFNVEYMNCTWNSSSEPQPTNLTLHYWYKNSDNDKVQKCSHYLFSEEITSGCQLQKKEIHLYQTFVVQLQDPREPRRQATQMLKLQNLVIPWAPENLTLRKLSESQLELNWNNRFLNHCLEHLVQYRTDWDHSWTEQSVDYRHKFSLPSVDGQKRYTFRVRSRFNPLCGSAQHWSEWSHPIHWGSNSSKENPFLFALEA
Parameter pEC50: see the listing below.
Units for pEC50: none; it is -log10 of a concentration expressed in mol/L.

Use these answered entries as a reference point.
binder	recorded.metric	measured.result
37-MP07F09 VHH-hFc, monospecific monovalent (Fc fusion, part only; not given: Both Fc arms and linker, not shown: another chain or arm of the molecule; a dimerising Fc or GST; small tags and cut ends) VHH: QVQLVESGGGLVQAGGSLRLSCAASGRTLSRYAMGWFRQAPGKEREYVAIDSWGGDTFYADSVEGRFTFSRDNAKNEVYLQMNSLQPEDTAVYYCAGAPTSFATTAYSSSNSYRYWGQGTQVTVSS	pEC50	10.01
36-MP07F02 VHH-hFc, monospecific monovalent (Fc fusion, part only; not given: Both Fc arms and linker, not shown: another chain or arm of the molecule; a dimerising Fc or GST; small tags and cut ends) VHH: QVQLVESGGGLVQAGGSLRLSCAASGRTLSRYAMGWFRQAPGSEREFVAASSWGGDTFYADSVEGRFTFSRDNAKNAVYLQMNSLQPEDTAAYYCAAAPTSFPTTAYSSSNSYAYWGQGTQVTVSS	pEC50	9.65

Turning to the following binder.
What value of measured pEC50 is listed for 29-MP04H02 VHH-hFc, monospecific monovalent (Fc fusion, part only; not given: Both Fc arms and linker, not shown: another chain or arm of the molecule; a dimerising Fc or GST; large carriers; small tags and cut ends) VHH: QVQLVESGGGLVQAGGSLRLACVASGLTFDNYYMGWFRQAPGKEREFVAGIIWNGDHTAYADSIKGRFTISRDNAKNTAYLRMNSLKPEDTAVYYCAATFWIERATTPDIGQYAYWGQGTQVTVSS ? 9.27

src = patent US20240409645A1
